assayed system: purified recombinant His-tag PC-TP (Homo sapiens)
Sequence (Q9UKL6 1-214): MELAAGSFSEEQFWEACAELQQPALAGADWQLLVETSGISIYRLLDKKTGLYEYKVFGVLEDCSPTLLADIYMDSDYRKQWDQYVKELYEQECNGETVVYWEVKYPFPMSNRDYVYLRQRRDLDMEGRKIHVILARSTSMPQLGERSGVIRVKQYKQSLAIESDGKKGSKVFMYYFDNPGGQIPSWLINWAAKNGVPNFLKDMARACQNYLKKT
method summary: Surface plasmon resonance binding to immobilized PC-TP
measurement setup: Biacore 3000, CM5 chip, 150 s injection
observable: pKd
Recall that pKd is obtained by taking minus log10 of the concentration measured in molar.

[Q] Under purified recombinant His-tag PC-TP (Homo sapiens): pKd value of "Cc1cc(C)nc(NS(=O)(=O)c2cccc(NC(=O)NC(=O)c3ccc(Cl)cc3Cl)c2)n1" ?
[A] 5.30

----------
List of pIC50 values.
assayed system: PC-TP (Homo sapiens)
Sequence (Q9UKL6 1-214): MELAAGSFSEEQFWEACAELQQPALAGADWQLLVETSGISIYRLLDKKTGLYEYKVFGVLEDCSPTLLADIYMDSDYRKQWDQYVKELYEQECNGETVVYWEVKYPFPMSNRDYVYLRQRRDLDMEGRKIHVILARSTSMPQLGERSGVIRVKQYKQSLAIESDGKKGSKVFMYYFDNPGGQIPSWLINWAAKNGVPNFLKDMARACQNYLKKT
Recall that pIC50 is obtained by taking minus log10 of the concentration measured in molar.

Worked examples follow.
# compound, pIC50
rows = [
    ("O=C(Nc1cc(C(F)(F)F)cc(C(F)(F)F)c1)C(Sc1cccc[n+]1[O-])c1ccccc1 (centres unmarked) [Compound 20]", 4.89),
    ("COc1ccccc1NC(=O)C(Sc1cccc[n+]1[O-])c1ccccc1 (centres unmarked) [Compound 34]", 5.40),
    ("Cc1cc(C)nc(N(C)S(=O)(=O)c2ccc(NC(=O)NC(=O)c3ccc(Cl)cc3Cl)cc2)n1 [Compound 12]", 5.64),
]

[Q] Under PC-TP (Homo sapiens): pIC50 value of O=C(Nc1cccc(C(F)(F)F)c1)C(Sc1cccc[n+]1[O-])c1ccccc1 (centres unmarked) [Compound 19] ?
[A] 4.96

[Q] Under PC-TP (Homo sapiens): pIC50 value of Cc1cc(C)nc(NS(=O)(=O)c2ccc(NC(=O)NC(=O)c3ccc(Cl)c(Cl)c3)cc2)n1 [Compound 10] ?
[A] 4.52

[Q] Under PC-TP (Homo sapiens): pIC50 value of O=C(Nc1cc(Cl)cc(Cl)c1)C(Sc1cccc[n+]1[O-])c1ccccc1Cl (centres unmarked) [Compound 21] ?
[A] 4.82

[Q] Under PC-TP (Homo sapiens): pIC50 value of Cc1cc(C)nc(NS(=O)(=O)c2ccc(NC(=S)NC(=O)c3ccc(Cl)cc3Cl)cc2)n1 [Compound 1] ?
[A] 5.49

[Q] Under PC-TP (Homo sapiens): pIC50 value of COc1ccc(NC(=O)C(Sc2cccc[n+]2[O-])c2ccccc2)cc1Cl (centres unmarked) [Compound 17] ?
[A] 4.70

[Q] Under PC-TP (Homo sapiens): pIC50 value of Cc1cc(C)nc(NS(=O)(=O)c2ccc(NC(=O)NC(=O)c3ccc(Cl)cc3Cl)cc2)c1 [Compound 7] ?
[A] 5.30

[Q] Under PC-TP (Homo sapiens): pIC50 value of Cc1cc(C)nc(NS(=O)(=O)c2ccc(NC(=O)N(C)C(=O)c3ccc(Cl)cc3Cl)cc2)n1 [Compound 15] ?
[A] 5.10

----------
Target protein (sequence): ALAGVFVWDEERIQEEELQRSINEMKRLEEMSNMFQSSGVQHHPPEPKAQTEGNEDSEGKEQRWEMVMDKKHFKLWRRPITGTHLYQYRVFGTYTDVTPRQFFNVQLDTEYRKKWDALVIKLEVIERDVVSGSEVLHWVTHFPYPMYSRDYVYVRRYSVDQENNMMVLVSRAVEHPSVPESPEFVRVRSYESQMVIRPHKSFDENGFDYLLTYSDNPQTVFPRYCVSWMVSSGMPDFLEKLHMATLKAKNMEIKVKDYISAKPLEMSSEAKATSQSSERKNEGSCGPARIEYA
observable: pIC50
Recall that pIC50 is obtained by taking minus log10 of the concentration measured in molar.

[Q] Request the reported pIC50 associated with O=C(Nc1cc(Cl)cc(Cl)c1)C(Sc1cccc[n+]1[O-])c1ccccc1 (stereo not shown)
[A] 4.18

----------
The following compounds each carry a recorded IC50 for StarD10 (Homo sapiens).
Give just the number in µM; leave the unit off.

Worked examples follow.
# compound, assayed system, IC50 [µM]
measured = [
    ("Cc1cc(C)nc(N(C)S(=O)(=O)c2ccc(NC(=O)NC(=O)c3ccc(Cl)cc3Cl)cc2)n1", "StarD10 (Homo sapiens)", 11),
    ("Cc1cc(C)nc(NS(=O)(=O)c2ccc(NC(=O)N(C)C(=O)c3ccc(Cl)cc3Cl)cc2)n1", "StarD10 (Homo sapiens)", 17),
]

[Q] Under StarD10 (Homo sapiens): IC50 value of O=C(Nc1cc(Cl)cc(Cl)c1)C(Sc1cccc[n+]1[O-])c1ccccc1 (stereo not drawn) ?
[A] 20

[Q] Under StarD10 (Homo sapiens): IC50 value of COc1ccccc1NC(=O)C(Sc1cccc[n+]1[O-])c1ccccc1 (stereo not drawn) ?
[A] 15

[Q] Under StarD10 (Homo sapiens): IC50 value of "Cc1cc(C)nc(NS(=O)(=O)c2cccc(NC(=O)NC(=O)c3ccc(Cl)cc3Cl)c2)n1" ?
[A] 14

[Q] Under StarD10 (Homo sapiens): IC50 value of "Cc1cc(NS(=O)(=O)c2ccc(NC(=O)NC(=O)c3ccc(Cl)cc3Cl)cc2)nc(C)n1" ?
[A] 20
